assay: protein stability index of a GFP-peptide fusion (GPS, HEK-293T) (PSI 1-6); higher = more stable; settings: treatment: MLN4924 1 uM, 8 h; c terminus: a fixed tail appended;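 further: 24-mer peptide tiles fused after GFP, lentivirally expressed, FACS-sorted into six equal bins by GFP/DsRed ratio, decoded by Illumina sequencing, PSI is the read-weighted mean bin number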
protein stability index: recorded values
Measure name: protein stability index

{"Input sequence": "LAVFARCLAGCEGAHEQVDFKDFY [P3H4]", "Measured": 2.02}
{"Input sequence": "NLYEEGRTAFLWRGNVVLRAQMIR [TRIM43]", "Measured": 2.06}
{"Input sequence": "GARYEVTVVSVRGFEESEPLTGFL [TNXB]", "Measured": 2.38}
{"Input sequence": "KQDSLVILTIMATLKIRNSNFYTV [TMEM106C]", "Measured": 3}
{"Input sequence": "ALQPSPSIRLPLDAPLPGSKAKPK [TBC1D10A]", "Measured": 4.32}

====

protein stability index: recorded values
experiment: protein stability index of a GFP-peptide fusion (GPS, HEK-293T) (PSI 1-6); higher = more stable; conditions: treatment: MLN4924 1 uM, 8 h; c terminus: a fixed tail appended
Measure name: protein stability index

{"Input sequence": "KCDQPFFWNFKQMWDSKKIGLRQH [WDFY2]", "Measured": 2.65}
{"Input sequence": "AAKLLNVDPDNVVLCLLAADEDDD [GADD45A]", "Measured": 3.94}
{"Input sequence": "RTCFSPASDGSDFTFLRPLSVQQP [PCDHGC5]", "Measured": 2.78}
{"Input sequence": "WVNDPQRMDKRTLALLVLAHSSDV [GOLPH3L]", "Measured": 2.18}
{"Input sequence": "EYTLTGLKFDMKYMNFRVKACNKA [FSD1]", "Measured": 2.77}

====

assay: protein stability index of a GFP-peptide fusion (GPS, HEK-293T) (PSI 1-6); higher = more stable; conditions: treatment: MLN4924 1 uM, 8 h; c terminus: a fixed tail appended
protein stability index: recorded values

{"Input sequence": "PFVSAMPTPMPHNKGTRFSEAWEY [ZBED2]", "protein stability index": 2.94}
{"Input sequence": "QAEFTAMRDQYMRAGEGFIICYSI [RIT1]", "protein stability index": 3.04}
{"Input sequence": "ISQYEDDLPPPPADPVLDLPLPPP [APBB1IP]", "protein stability index": 4.91}
{"Input sequence": "RPDGDCASSLNGGNIKGIEGHSPG [ZC2HC1A]", "protein stability index": 5.02}
{"Input sequence": "VGSDPLIKSDEECRDLVDEAKNYL [KLHL20]", "protein stability index": 5.09}
{"Input sequence": "LQTGPLLGRPDSLELQRQREARKR [RSPH3]", "protein stability index": 5.08}
{"Input sequence": "RERAVEWRERAVEKRERALEEVER [ZBED2]", "protein stability index": 5.08}
{"Input sequence": "LETSGNPNGRYGSGYLLASTPESE [SLC6A17]", "protein stability index": 4.91}
{"Input sequence": "IGAFLNLVVLRFLTMNSEDERRDA [KCNK9]", "protein stability index": 3.02}
{"Input sequence": "ELFKKDPGFDRGQFHKQIAVMRGQ [PI4K2A]", "protein stability index": 3.03}

====

test: protein stability index of a GFP-peptide fusion (GPS, HEK-293T) (PSI 1-6); higher = more stable; conditions: treatment: DMSO; c terminus: a fixed tail appended

{"Input sequence": "EFFGSASQPAVELVSGSQSALGPP [CLINT1]", "protein stability index": 3.96}
{"Input sequence": "EQLEAEAQALRQELERQRRLLGSV [PBXIP1]", "protein stability index": 4.04}
{"Input sequence": "DNSLSSQNYISQKEDASEFQILKY [MIA2]", "protein stability index": 3.94}
{"Input sequence": "EDITYVLKPTFTKQQIANLDKQAK [USP39]", "protein stability index": 4.01}

====

test: protein stability index of a GFP-peptide fusion (GPS, HEK-293T) (PSI 1-6); higher = more stable; conditions: treatment: DMSO; c terminus: a fixed tail appended
Response key: YES means protein stability index >= 4; NO means protein stability index < 4.

{"Input sequence": "DKDVRLLVACCLADIFRIYAPEAP [PDS5B]", "Cat": "NO"}
{"Input sequence": "DIKRGIPNYEFKLGKITFIRNSRP [UFD1]", "Cat": "NO"}
{"Input sequence": "LALDSGASLLHLAVEAGQEECAKW [RIPK4]", "Cat": "NO"}
{"Input sequence": "QETAKEEDGSVELESQVQKDGVAD [C18orf25]", "Cat": "YES"}
{"Input sequence": "LSAANVCLDPIIYFFLCQPFREIL [P2RY14]", "Cat": "NO"}
{"Input sequence": "EPLMTNKLSETFLQIYQYVPKDQR [DLC1]", "Cat": "NO"}
{"Input sequence": "PLEPEDALSDAEFEGEGDYEEGMY [P3H4]", "Cat": "YES"}
{"Input sequence": "GQPAPPQLLLGRLFRWPDLQHAVE [SMAD6]", "Cat": "NO"}
{"Input sequence": "SKATFSRNIMNLIDIVAIIPYFIT [KCNA3]", "Cat": "NO"}
{"Input sequence": "LVYHPVQLSTPHAVGVLLLGLVGY [DHCR7]", "Cat": "NO"}
{"Input sequence": "ATFHVGGGPAQNAPHQQPPAPPSD [TFE3]", "Cat": "YES"}
{"Input sequence": "VENELMISYLMFLQILVYFSFMSW [FAM98B]", "Cat": "NO"}
{"Input sequence": "QTTYLEDRPMFMLQCAMEENCLSA [LOXL2]", "Cat": "NO"}

====

protein stability index: recorded values
experiment: protein stability index of a GFP-peptide fusion (GPS, HEK-293T) (PSI 1-6); higher = more stable; details: treatment: MLN4924 1 uM, 8 h; c terminus: a fixed tail appended
Measure name: protein stability index

{"Input sequence": "CFFRDHSYQEEAAMELKVEDPFYW [MOG]", "Measured": 3.02}
{"Input sequence": "NLTRRFSDLGFEVKCFNDLKAEEL [CASP6]", "Measured": 3}
{"Input sequence": "AACFDGRLDIVKYLVENNANISIA [FEM1B]", "Measured": 2.21}
{"Input sequence": "KKRKRQEKIDKLEQDMERRKADFK [ZC3H15]", "Measured": 4.77}
{"Input sequence": "HSYMGMRGFCAFLGSWLVPFAYLT [POMT2]", "Measured": 3.04}
{"Input sequence": "VEESEASSSVSISHSASATGNVCI [LMNB1]", "Measured": 4.71}
{"Input sequence": "ENYDIIKTYHYLYLAMLERFQDGD [FEM1B]", "Measured": 2.52}

====

test: protein stability index of a GFP-peptide fusion (GPS, HEK-293T) (PSI 1-6); higher = more stable; settings: treatment: MLN4924 1 uM, 8 h; c terminus: a fixed tail appended

{"Input sequence": "RNGLHLPEQVQNEIKSMKKRMSEL [NLN]", "protein stability index": 4.4}
{"Input sequence": "ASLHPSVSPGSPPPPLPNHKYNTT [PLAGL1]", "protein stability index": 4.59}
{"Input sequence": "PLMVKGFRDAAEEGGTAVTGGQTV [SEPHS2]", "protein stability index": 5.16}
{"Input sequence": "NIQANNCFSTGLSRRVLLTNVVTG [DCAF4]", "protein stability index": 2.63}
{"Input sequence": "KGERGEDSSEEKHLEEPGETQNAF [CHGB]", "protein stability index": 5.62}
{"Input sequence": "GGPAGQAGRGGAAGTAGVGETGSG [MYOZ1]", "protein stability index": 5.34}
{"Input sequence": "PLEPEDALSDAEFEGEGDYEEGMY [P3H4]", "protein stability index": 5.44}
{"Input sequence": "GALTGKENNMLQPETHIFTAPEEV [DMRTC1]", "protein stability index": 5.01}
{"Input sequence": "RASALCDRHTKFFEEPEDPSNRSF [PPP2R2B]", "protein stability index": 4.49}
{"Input sequence": "AEGHKASFCLEDTECEGDIQKNYE [LOXL2]", "protein stability index": 5.33}
{"Input sequence": "RRFSSEDLEDPLGGLLSYDEGGIT [FBF1]", "protein stability index": 4.56}
{"Input sequence": "RKVLQAVHRGDGANPFQAYLDVDL [RTN2]", "protein stability index": 3.26}
{"Input sequence": "EFVIIDCRYPYEYEGGHIKGAVNL [CDC25A]", "protein stability index": 2.3}

====

assay: protein stability index of a GFP-peptide fusion (GPS, HEK-293T) (PSI 1-6); higher = more stable; conditions: treatment: MLN4924 1 uM, 8 h; c terminus: a fixed tail appended

{"Input sequence": "LFSSHPPLGGGVGGQDGLGAPKDQ [KLHL14]", "protein stability index": 4.81}
{"Input sequence": "AALEEESRQRQSRMEKGEPYMSIQ [SMARCE1]", "protein stability index": 4.88}
{"Input sequence": "MPLSGTPAPNKKRKSSKLIMELTG [MYOZ1]", "protein stability index": 3.81}
{"Input sequence": "CLEPLEQKLQEITRCKSSEEKKPG [TRIM39]", "protein stability index": 5.08}
{"Input sequence": "MECYDIYSKTWTKQPDLTMVRKIG [GAN]", "protein stability index": 2.66}
{"Input sequence": "RRARINESLQELRLLLAGAEVQAK [HES6]", "protein stability index": 2.84}
{"Input sequence": "LALDSGASLLHLAVEAGQEECAKW [RIPK4]", "protein stability index": 3.46}
{"Input sequence": "EGHLDDGGYTPDLKMSYSRGLIPV [RBMY1A1]", "protein stability index": 3.15}
{"Input sequence": "YSGQITLLKLEQNTCSVITTLKGH [WDFY1]", "protein stability index": 2.38}
{"Input sequence": "ASLNIKTTVPEVEPPQDSHSRKTV [PRPH]", "protein stability index": 5.18}
{"Input sequence": "QDLDSRLRAGSSEFDSEHNLTSNE [RASAL3]", "protein stability index": 5.42}
{"Input sequence": "SSAPRDVQARMLSSTTILVQWKEP [PTPRD]", "protein stability index": 2.79}
{"Input sequence": "SSKLVTKKAPQPAKPRLAERMTTR [HDAC6]", "protein stability index": 4.47}
{"Input sequence": "EDITYVLKPTFTKQQIANLDKQAK [USP39]", "protein stability index": 4.17}
{"Input sequence": "QGQPVVNRPLSLKDQQTFARSVGL [TRADD]", "protein stability index": 3.9}
{"Input sequence": "VSSAVSPSIIPQEDPSQQFLQQSL [INTS4]", "protein stability index": 4.41}
{"Input sequence": "PFAFVEFEDPRDAEDAVYGRDGYD [SRSF1]", "protein stability index": 4.64}
{"Input sequence": "SNKKRPSLDGRDPGNGTHGLSPEE [ELOA2]", "protein stability index": 5.33}
{"Input sequence": "ELFPTGKQLEPLVAPLADGKVAVG [VPS39]", "protein stability index": 3.8}
{"Input sequence": "RVYVSGLMKGGADLFVENMPGFPD [APMAP]", "protein stability index": 2.7}
{"Input sequence": "KQLRQVTKEEGLALAREFSCPFFE [RIT1]", "protein stability index": 3.49}
{"Input sequence": "FYRYKMPRLIAKVEGKGNGIKTVI [EIF5]", "protein stability index": 2.26}
{"Input sequence": "EMIQTSKTEITDLRRTMQELEIEL [KRT15]", "protein stability index": 3.65}
{"Input sequence": "AEDHLDGCCKRRYLQKIEEFAEMV [KCNG1]", "protein stability index": 2.96}
{"Input sequence": "LLAIQFLEFFYGIATATEIAYYSY [SLC19A2]", "protein stability index": 3.13}
{"Input sequence": "VVLKLFLSFSGSDVQNKLKESAQC [SNX8]", "protein stability index": 2.92}
{"Input sequence": "LSSYISINSDTGVLYALRSFDYEQ [PCDHGA10]", "protein stability index": 2.27}
{"Input sequence": "DTDAEGDDFELLDQSELSQLDPAS [RETREG3]", "protein stability index": 5.57}
{"Input sequence": "QLPIDRGGGEGKAMYIDTEGTFRP [RAD51]", "protein stability index": 4.05}
{"Input sequence": "PPSVLISKNEVGIFTTPNFDETSS [KMT2E]", "protein stability index": 4.33}
{"Input sequence": "EEDEQLRALVRQFGQQDWKFLASH [MYBL2]", "protein stability index": 3.46}
{"Input sequence": "GERVVINISGLRFETQLKTLCQFP [KCNA3]", "protein stability index": 2.19}
